biological target: human ACC2 (Homo sapiens (Human)); assay: ACC2 assay (spectrophotometric 384 well assay, NADH-linked kinetic method); assay type: biochemical; conditions: hACC2 construct lacking 128 N-terminal amino acids; coupled lactate dehydrogenase/pyruvate kinase reaction, 340 nm, 25° C.
Sequence (O00763 129-2458): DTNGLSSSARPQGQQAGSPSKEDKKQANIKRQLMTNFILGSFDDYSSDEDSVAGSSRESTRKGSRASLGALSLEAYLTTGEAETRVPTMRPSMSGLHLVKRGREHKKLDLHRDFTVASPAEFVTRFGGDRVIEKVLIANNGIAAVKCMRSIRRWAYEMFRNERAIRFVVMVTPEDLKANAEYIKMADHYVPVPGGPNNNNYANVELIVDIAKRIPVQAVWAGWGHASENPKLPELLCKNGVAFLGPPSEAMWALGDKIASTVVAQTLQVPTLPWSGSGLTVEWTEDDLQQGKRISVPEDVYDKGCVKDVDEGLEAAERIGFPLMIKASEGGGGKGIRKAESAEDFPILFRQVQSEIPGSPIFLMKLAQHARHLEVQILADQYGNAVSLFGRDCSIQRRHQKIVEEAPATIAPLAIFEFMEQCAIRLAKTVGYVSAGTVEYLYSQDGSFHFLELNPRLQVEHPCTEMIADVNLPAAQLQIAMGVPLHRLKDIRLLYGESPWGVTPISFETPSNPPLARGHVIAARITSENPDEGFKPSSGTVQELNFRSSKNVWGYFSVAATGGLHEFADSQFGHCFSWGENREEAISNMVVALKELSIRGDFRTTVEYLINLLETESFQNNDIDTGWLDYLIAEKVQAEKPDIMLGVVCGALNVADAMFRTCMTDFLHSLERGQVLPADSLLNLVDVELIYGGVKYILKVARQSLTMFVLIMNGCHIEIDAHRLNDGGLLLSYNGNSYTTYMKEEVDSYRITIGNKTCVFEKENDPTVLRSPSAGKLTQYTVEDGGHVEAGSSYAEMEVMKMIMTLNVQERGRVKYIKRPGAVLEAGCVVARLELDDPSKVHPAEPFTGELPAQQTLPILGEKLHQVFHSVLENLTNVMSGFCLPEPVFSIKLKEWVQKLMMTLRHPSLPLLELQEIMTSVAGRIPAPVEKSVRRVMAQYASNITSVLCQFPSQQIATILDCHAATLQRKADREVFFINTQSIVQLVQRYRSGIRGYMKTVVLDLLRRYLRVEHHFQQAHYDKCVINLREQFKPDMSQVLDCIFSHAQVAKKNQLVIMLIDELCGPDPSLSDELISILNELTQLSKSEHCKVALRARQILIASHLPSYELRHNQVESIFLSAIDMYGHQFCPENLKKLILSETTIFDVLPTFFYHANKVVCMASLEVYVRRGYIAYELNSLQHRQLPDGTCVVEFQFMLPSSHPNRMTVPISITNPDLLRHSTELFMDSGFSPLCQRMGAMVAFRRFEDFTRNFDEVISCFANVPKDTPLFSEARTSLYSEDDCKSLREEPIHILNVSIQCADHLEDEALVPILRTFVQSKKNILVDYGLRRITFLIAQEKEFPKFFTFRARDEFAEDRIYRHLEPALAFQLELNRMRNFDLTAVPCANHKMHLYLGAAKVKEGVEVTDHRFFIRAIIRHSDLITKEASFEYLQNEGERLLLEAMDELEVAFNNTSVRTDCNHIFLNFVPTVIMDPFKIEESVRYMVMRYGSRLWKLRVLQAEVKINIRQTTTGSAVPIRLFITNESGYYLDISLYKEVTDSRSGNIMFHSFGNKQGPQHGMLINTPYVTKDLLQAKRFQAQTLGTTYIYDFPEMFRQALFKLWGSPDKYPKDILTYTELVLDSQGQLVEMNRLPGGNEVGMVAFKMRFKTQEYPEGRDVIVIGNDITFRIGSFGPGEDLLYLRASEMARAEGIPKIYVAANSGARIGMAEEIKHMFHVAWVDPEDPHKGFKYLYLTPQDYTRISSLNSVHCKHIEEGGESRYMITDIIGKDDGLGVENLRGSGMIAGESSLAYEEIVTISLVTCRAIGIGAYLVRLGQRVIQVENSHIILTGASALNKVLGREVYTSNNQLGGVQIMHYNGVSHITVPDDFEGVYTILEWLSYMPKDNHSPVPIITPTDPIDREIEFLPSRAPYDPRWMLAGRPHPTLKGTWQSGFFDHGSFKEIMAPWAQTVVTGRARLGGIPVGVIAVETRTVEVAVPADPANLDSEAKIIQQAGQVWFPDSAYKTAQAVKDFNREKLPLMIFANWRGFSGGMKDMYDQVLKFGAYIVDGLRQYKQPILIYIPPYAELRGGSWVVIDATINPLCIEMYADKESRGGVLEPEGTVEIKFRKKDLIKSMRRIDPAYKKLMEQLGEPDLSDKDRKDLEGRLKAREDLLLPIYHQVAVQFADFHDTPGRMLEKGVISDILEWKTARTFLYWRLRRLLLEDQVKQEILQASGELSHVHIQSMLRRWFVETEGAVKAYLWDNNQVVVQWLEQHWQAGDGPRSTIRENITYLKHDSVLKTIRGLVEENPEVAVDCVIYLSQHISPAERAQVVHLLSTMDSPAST
So I've got a bunch of compounds here, and I need their IC50 values.
Report the value in nM with no unit label.

Q: Note down IC50 recorded for `CC(=O)N[C@@H](C)c1ccc(O[C@@H]2CCN(c3ccnc(OCC4CC4)n3)C2)cc1`
A: 1100

Q: Look up and report measured IC50 for this entry: `CC(=O)N[C@@H](C)c1ccc(O[C@@H]2CCN(c3ncnc(N(C)CC(F)F)c3Cl)C2)cc1`
A: 166

Q: Fill in IC50 for record `CC(=O)N[C@@H](C)c1ccc(O[C@@H]2CCN(c3nc(OCC4(C)CC4)ncc3F)C2)cc1`
A: 565

Q: For the compound `CC(=O)N[C@@H](C)c1ccc(O[C@@H]2CCN(c3nc(N(C)C4CCOCC4)ncc3Cl)C2)cc1` , report IC50.
A: 269

Q: Respond only with IC50 recorded for C[C@H](NC(=O)N(C)C)c1ccc(OC2CCN(c3ncnc(OCC4CC4)c3F)C2)cc1 (stereo partly shown)
A: 45

Q: Answer with the recorded IC50 of `CCC(=O)Nc1nc(C)c(C(=O)N[C@@H](C)c2ccc(O[C@@H]3CCN(c4ncnc(OCC(C)(C)O)c4Cl)C3)cc2)s1` only.
A: 723

Q: Specify reported IC50 for the compound shown: `CCN(CCO)c1ncc(Cl)c(N2CC[C@@H](Oc3ccc([C@H](C)NC(C)=O)cc3)C2)n1`
A: 389
